Tested on: LXRa homodimer (NR concentration 270 nM)
METHOD_DESCRIPTION: PBM binding z-score (relative to random genomic background probes); higher = stronger binding; sequences stand for … in GC…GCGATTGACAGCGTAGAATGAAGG
Decide using PBM binding z-score: a value greater than or equal to 1 is YES, a smaller one is NO.

>>> group("GCTGCTAGGTTAACTGATGGTCAGCTAAAGCTCG")
"NO"

Is reported PBM binding z-score greater than or equal to 1 here: ATATGTAGGTTAGGGTCATTCTGAAAGTAGGGAA
YES

Is reported PBM binding z-score greater than or equal to 1 here: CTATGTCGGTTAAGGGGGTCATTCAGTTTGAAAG
YES
